parameter: log10 intrinsic clearance, rat liver microsomes (log10 of the value in mL/min/kg)
Kindly note that the scale is log10 and the underlying intrinsic clearance, rat liver microsomes is in mL/min/kg.

{"smiles.notation": "Cc1cc(C)nc(NC(=O)N(C)C2CCC2)c1", "recorded.value": 2.25}
{"smiles.notation": "Cc1nc(C)c(C)c(NCc2cc(-c3ccc(F)cc3)no2)n1", "recorded.value": 2.38}
{"smiles.notation": "CC1(C)Cc2cc(CN3CCC4(CC3)NC(=O)N(Cc3ccccc3)C4=O)ccc2O1", "recorded.value": 2.47}
{"smiles.notation": "CCc1ccccc1NC(=O)c1cc(C)nc2onc(C)c12", "recorded.value": 1.73}
{"smiles.notation": "Cc1ccc(C(=O)NCCc2csc(C)n2)cn1", "recorded.value": 1.05}

Now consider the entry below.
What measured log10 intrinsic clearance, rat liver microsomes goes with Cc1ccc(CCC(=O)Nc2nccc3sccc23)o1 ?
3.06

###

parameter: intrinsic clearance, human liver microsomes (mL/min/kg)
Supply the numeric figure in mL/min/kg, leaving out any unit text.

{"smiles.notation": "COc1cccc(CN2CCC(Cc3ccc(-c4cccnc4)cc3)(C(N)=O)CC2)c1", "unit.label": "mL/min/kg", "recorded.value": 108}
{"smiles.notation": "Cc1c(C(=O)Nc2ccc(CO)cc2)nnn1Cc1ccc(Cl)c(Cl)c1", "unit.label": "mL/min/kg", "recorded.value": 5.12}
{"smiles.notation": "O=C1CCC(=O)N1CCN1CCCCc2ccccc21", "unit.label": "mL/min/kg", "recorded.value": 122}
{"smiles.notation": "NS(=O)(=O)C#Cc1ccccc1", "unit.label": "mL/min/kg", "recorded.value": 10.6}
{"smiles.notation": "COc1cccc(Cn2cnc3c(c2=O)COCC3)c1Cl", "unit.label": "mL/min/kg", "recorded.value": 5.71}

Now consider the entry below.
What measured intrinsic clearance, human liver microsomes goes with COc1ccc(CCn2c(C3CC3)n[nH]c2=O)cc1 ?
5.56

###

Each entry below lists one item and its recorded aqueous solubility value.
conditions: pH 6.8
Supply the numeric figure in µg/mL, leaving out any unit text.

Known aqueous solubility results, listed for orientation:
{"compound": "Cc1ccc(-c2nc(C(=O)N3CCc4ccccc4C3)cs2)o1", "parameter": "aqueous solubility", "recorded.value": 36}
{"compound": "N#Cc1c(N)nc(SCC(N)=O)c(C#N)c1-c1ccc(OCC2CC2)cc1", "parameter": "aqueous solubility", "recorded.value": 0.52}
{"compound": "O=C(CC(=O)N1CCCC1)N1CCCC1", "parameter": "aqueous solubility", "recorded.value": 30.7}
{"compound": "Cc1nc(C2CCN(CC(N)=O)CC2)no1", "parameter": "aqueous solubility", "recorded.value": 61.4}

What measured aqueous solubility goes with Cc1c(Cl)cccc1NC(=O)C(C)N1CCCN(c2nccs2)CC1 (stereo not given) ?
48.2

What measured aqueous solubility goes with O=C(CCc1ccccc1)N1CCC(c2cccc(Cc3ccc(F)cc3)n2)CC1 ?
4.5

###

Each entry below lists one item and its recorded intrinsic clearance, human liver microsomes value.
Supply the numeric figure in mL/min/kg, leaving out any unit text.

Known intrinsic clearance, human liver microsomes results, listed for orientation:
{"smiles.notation": "COc1ccc2c(c1)CCCN(C(=O)NCCc1ccccn1)C2", "unit.label": "mL/min/kg", "recorded.value": 174}
{"smiles.notation": "O=C(Nc1ccccn1)c1cccc2ccccc12", "unit.label": "mL/min/kg", "recorded.value": 131}
{"smiles.notation": "CC1(CNC(=O)N2CCN(Cc3ccon3)CC2)CCCC1", "unit.label": "mL/min/kg", "recorded.value": 7.42}

What measured intrinsic clearance, human liver microsomes goes with Cn1cc(CCNc2cncc(Br)c2)cn1 ?
12

What measured intrinsic clearance, human liver microsomes goes with CCN1C(=O)C(C)(C)COc2cc(NS(=O)(=O)c3cc(C)c(C)cc3OC)ccc21 ?
445

What measured intrinsic clearance, human liver microsomes goes with Cc1cnn(CC2CC2)c1NC(=O)/C=C/c1ccccc1 ?
13.8

What measured intrinsic clearance, human liver microsomes goes with COC(=O)c1c(C)[nH]c(C(=O)N(C)Cc2ccc(OC)c(F)c2)c1C ?
55

What measured intrinsic clearance, human liver microsomes goes with CN1C(=O)c2ccc(C(=O)N(CC3CCCCC3)C3CC3)cc2C1=O ?
123

What measured intrinsic clearance, human liver microsomes goes with Cn1ncc2c(Oc3cccc(C(C)(C)C)c3)ncnc21 ?
36.7

What measured intrinsic clearance, human liver microsomes goes with O=C(NCc1cccc(O)c1)Nc1nc(-c2ccncc2)cs1 ?
97.6

What measured intrinsic clearance, human liver microsomes goes with Cc1ccnc(NC(=O)CN(C)C(=O)c2ccc(Cl)cc2)c1 ?
16.5

What measured intrinsic clearance, human liver microsomes goes with CN(C)c1nc(CN2CCOCC2)nc2scc(-c3cccs3)c12 ?
165

What measured intrinsic clearance, human liver microsomes goes with COc1ccc(CN2CCc3nc(-c4cccnc4)nc(O)c3C2)c(C)c1C ?
19.2

What measured intrinsic clearance, human liver microsomes goes with c1cnc(NCc2cccc(-c3cccnc3)c2)nc1 ?
19.6

What measured intrinsic clearance, human liver microsomes goes with N#Cc1ccc(-c2cccc(CN)c2)s1 ?
356

What measured intrinsic clearance, human liver microsomes goes with CN(C/C=C/C(=O)N1CCC[C@@H](n2nc(-c3ccc(Oc4ccccc4)cc3)c3c(N)ncnc32)C1)CCCCNC(=O)CCCC(=O)NCCCOCCOCCOCCCNC(=O)CCCC[C@@H]1SC[C@@H]2NC(=O)N[C@@H]21 ?
127

###

settings: pH 6.8
parameter: aqueous solubility (µg/mL)
Supply the numeric figure in µg/mL, leaving out any unit text.

Known aqueous solubility results, listed for orientation:
{"smiles.notation": "CC1(C)Cc2cc(NC(=O)c3cnn4cccnc34)c(N3CCN(CC(F)F)CC3)nc2O1", "parameter": "aqueous solubility", "recorded.value": 76.9}
{"smiles.notation": "O=C(NCCc1ccccc1)c1cnccn1", "parameter": "aqueous solubility", "recorded.value": 59.1}
{"smiles.notation": "CCc1ccc(-c2nccn2Cc2c(C)nn(CC)c2C)o1", "parameter": "aqueous solubility", "recorded.value": 40.5}
{"smiles.notation": "CCN(CC)Cc1ccc2cc(COC(=O)Nc3ccc(C(=O)NO)cc3)ccc2c1", "parameter": "aqueous solubility", "recorded.value": 78}
{"smiles.notation": "COc1cc2c(NC3CCN(C(C)C)CC3)nc(N3CCC(F)(F)CC3)nc2cc1OCCCN1CCCC1", "parameter": "aqueous solubility", "recorded.value": 64.8}

Now consider the entry below.
What measured aqueous solubility goes with CSc1cccc(-c2ccccc2-c2nnc(C)o2)c1 ?
41.5

###

parameter: intrinsic clearance, rat liver microsomes (mL/min/kg)
Supply the numeric figure in mL/min/kg, leaving out any unit text.

{"smiles.notation": "Cc1cc(C(=O)N(C)Cc2ccc(Br)cc2)no1", "recorded.value": 941}
{"smiles.notation": "Nc1ccc(Nc2ncc3cnn(C4CCCCCC4)c3n2)cn1", "recorded.value": 216}
{"smiles.notation": "COc1cc2cc3c(nc2cc1OC)OCCN(C1CCCCC1)C3", "recorded.value": 1680}
{"smiles.notation": "CCOc1cc(-c2nnc(NC(=O)c3cccc(C(F)(F)F)c3)o2)cc(OCC)c1OCC", "recorded.value": 17.5}
{"smiles.notation": "O=C(C1CCC1)N1CCC(c2ncc(-c3ccc(F)c(F)c3)[nH]2)CC1", "recorded.value": 2740}

What measured intrinsic clearance, rat liver microsomes goes with CC(=O)N(C)[C@H]1CC2(CCN(C(=O)COc3cc(C)c(Cl)c(C)c3)CC2)OC[C@]1(C)O ?
442

What measured intrinsic clearance, rat liver microsomes goes with COc1ccc(C2(NCc3cccc4ncccc34)CC2)cc1 ?
1340

What measured intrinsic clearance, rat liver microsomes goes with CN(Cc1n[nH]c2c1CCCC2)c1nccnc1C#N ?
1140

What measured intrinsic clearance, rat liver microsomes goes with Cc1nc(N(C)C)cc(C2(C)CCNCC2)n1 ?
18.4

What measured intrinsic clearance, rat liver microsomes goes with Nc1nnc(SCCSC2CCCCC2)n1C1CC1 ?
582

What measured intrinsic clearance, rat liver microsomes goes with COCc1ncc(CN2CCC(Oc3cccc(C)c3)CC2)cn1 ?
131

What measured intrinsic clearance, rat liver microsomes goes with Cc1ccnc(-n2nccc2NC(=O)NC2(C)CCC2)c1 ?
931

###

Each entry below lists one item and its recorded aqueous solubility value.
conditions: pH 6.8
Supply the numeric figure in µg/mL, leaving out any unit text.

Known aqueous solubility results, listed for orientation:
{"smiles.notation": "N#CC1(NC(=O)C2CCCCCC2)CC1", "unit.label": "µg/mL", "aqueous solubility": 33.4}
{"smiles.notation": "Cn1ccc(NC(=O)[C@H]2CCCCN2C(=O)OC(C)(C)C)n1", "unit.label": "µg/mL", "aqueous solubility": 42.4}
{"smiles.notation": "Cc1cccc(NC(=O)c2ccc3ccccc3c2)n1", "unit.label": "µg/mL", "aqueous solubility": 1.17}
{"smiles.notation": "Cc1cccc(CNc2cccc3c2CCN(S(C)(=O)=O)C3)c1", "unit.label": "µg/mL", "aqueous solubility": 0.35}
{"smiles.notation": "COCCc1nc(-c2cnc(C3CC3)nc2)n(Cc2ccc(F)cc2)n1", "unit.label": "µg/mL", "aqueous solubility": 34.1}

What measured aqueous solubility goes with COc1cc2c(c(OC)c1OC)CCNC(=O)C2 ?
49.6

What measured aqueous solubility goes with O=C(NCCCn1ccnc1)N1CC2(CCCC2)c2ccccc21 ?
63.1

What measured aqueous solubility goes with COc1ccc2c(c1)C=C(CN1CCC(c3cc(-c4ccc(N)nc4)cc(C)n3)CC1)CO2 ?
22.9

What measured aqueous solubility goes with c1cnc(N2CCC(Cc3ccncc3)CC2)nc1 ?
58.1

What measured aqueous solubility goes with Cc1nc(C2CCNCC2)cc(N(C)C)n1 ?
38.5
